molecular target: Carboanhydrase IX (Homo sapiens, UniProt Q16790 38-459); experiment: cell-based or functional assay
# Lookup of reported MIAPaCa 2/CA9+ IC50 keyed by entry
Please reply with the bare figure in nM and do not write the unit itself.

Here are 3 binders together with their reported answers.
- Example 324 (antibody, human IgG1, kappa, V domains shown, linker-toxophore on cysteine S) VH: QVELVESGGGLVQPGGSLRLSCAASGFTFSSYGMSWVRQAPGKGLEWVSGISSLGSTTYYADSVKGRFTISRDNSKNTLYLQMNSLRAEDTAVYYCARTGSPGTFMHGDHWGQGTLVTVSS VL: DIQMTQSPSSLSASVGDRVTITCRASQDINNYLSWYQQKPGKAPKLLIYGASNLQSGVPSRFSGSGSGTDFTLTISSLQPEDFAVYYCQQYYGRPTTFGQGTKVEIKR: 11
- Example 282 (antibody, human IgG1, kappa, V domains shown, linker-toxophore on cysteine S) VH: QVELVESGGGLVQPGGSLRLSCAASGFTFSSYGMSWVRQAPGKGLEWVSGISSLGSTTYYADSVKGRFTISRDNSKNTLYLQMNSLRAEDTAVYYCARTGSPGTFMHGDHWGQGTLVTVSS VL: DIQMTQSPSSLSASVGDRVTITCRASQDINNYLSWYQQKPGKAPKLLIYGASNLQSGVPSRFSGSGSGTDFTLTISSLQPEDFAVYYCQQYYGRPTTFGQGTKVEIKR: 0.05
- Example 306 (antibody, human IgG1, kappa, V domains shown, linker-toxophore on lysine NH) VH: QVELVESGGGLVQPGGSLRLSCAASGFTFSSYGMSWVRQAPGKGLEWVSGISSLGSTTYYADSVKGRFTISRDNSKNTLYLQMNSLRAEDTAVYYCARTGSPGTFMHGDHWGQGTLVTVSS VL: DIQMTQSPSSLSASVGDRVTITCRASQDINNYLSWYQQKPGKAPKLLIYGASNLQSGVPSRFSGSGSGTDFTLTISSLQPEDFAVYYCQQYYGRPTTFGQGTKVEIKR: 21

Please indicate MIAPaCa 2/CA9+ IC50 recorded for Example 297 (antibody, human IgG1, kappa, V domains shown, linker-toxophore on cysteine S) VH: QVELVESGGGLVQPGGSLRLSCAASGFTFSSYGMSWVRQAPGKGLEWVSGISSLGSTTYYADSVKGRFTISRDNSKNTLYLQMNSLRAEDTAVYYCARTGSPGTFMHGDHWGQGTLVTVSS VL: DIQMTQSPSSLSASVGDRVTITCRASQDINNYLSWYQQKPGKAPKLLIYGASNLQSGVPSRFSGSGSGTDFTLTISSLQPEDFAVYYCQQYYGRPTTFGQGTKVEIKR
0.02

Please indicate MIAPaCa 2/CA9+ IC50 recorded for Example 287 (antibody, human IgG1, kappa, V domains shown, linker-toxophore on cysteine S) VH: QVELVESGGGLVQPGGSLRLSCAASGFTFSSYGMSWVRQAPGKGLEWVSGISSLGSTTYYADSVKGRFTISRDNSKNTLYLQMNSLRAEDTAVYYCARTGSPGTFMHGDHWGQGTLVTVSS VL: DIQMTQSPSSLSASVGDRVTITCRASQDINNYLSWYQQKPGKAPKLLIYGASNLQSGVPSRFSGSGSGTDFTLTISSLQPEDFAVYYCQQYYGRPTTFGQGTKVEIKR
69

Please indicate MIAPaCa 2/CA9+ IC50 recorded for Example 294 (antibody, human IgG1, kappa, V domains shown, linker-toxophore on cysteine S) VH: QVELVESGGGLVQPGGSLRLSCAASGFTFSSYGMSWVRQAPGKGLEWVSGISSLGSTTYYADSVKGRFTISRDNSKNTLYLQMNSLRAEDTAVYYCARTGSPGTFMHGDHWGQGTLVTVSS VL: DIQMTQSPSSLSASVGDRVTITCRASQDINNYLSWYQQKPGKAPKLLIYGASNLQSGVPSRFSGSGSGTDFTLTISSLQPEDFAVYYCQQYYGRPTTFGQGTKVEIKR
1

Please indicate MIAPaCa 2/CA9+ IC50 recorded for Example 296 (antibody, human IgG1, kappa, V domains shown, linker-toxophore on cysteine S) VH: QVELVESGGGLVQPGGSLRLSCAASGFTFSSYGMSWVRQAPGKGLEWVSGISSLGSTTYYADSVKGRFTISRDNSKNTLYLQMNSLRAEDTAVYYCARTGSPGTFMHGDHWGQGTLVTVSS VL: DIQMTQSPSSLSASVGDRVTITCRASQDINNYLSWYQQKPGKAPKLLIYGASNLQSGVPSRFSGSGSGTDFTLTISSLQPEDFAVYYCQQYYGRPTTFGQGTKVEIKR
0.6

Please indicate MIAPaCa 2/CA9+ IC50 recorded for Example 314 (antibody, human IgG1, kappa, V domains shown, linker-toxophore on lysine NH) VH: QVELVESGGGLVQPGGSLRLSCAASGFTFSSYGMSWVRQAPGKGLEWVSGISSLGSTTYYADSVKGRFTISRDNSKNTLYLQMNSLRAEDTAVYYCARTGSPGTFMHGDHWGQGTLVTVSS VL: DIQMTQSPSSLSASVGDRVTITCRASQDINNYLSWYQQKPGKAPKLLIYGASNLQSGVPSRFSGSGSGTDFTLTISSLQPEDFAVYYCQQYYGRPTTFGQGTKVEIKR
150

Please indicate MIAPaCa 2/CA9+ IC50 recorded for Example 305 (antibody, human IgG1, kappa, V domains shown, linker-toxophore on cysteine S) VH: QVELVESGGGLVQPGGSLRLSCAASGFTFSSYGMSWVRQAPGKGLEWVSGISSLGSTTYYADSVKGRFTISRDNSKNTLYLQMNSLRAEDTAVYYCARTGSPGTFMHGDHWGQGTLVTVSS VL: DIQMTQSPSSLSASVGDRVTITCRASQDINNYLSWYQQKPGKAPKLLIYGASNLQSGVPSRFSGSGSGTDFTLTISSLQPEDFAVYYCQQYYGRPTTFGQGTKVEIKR
2.6
